Experiment: Solubility in DPBS (A280 of supernatant)
Type: physicochemical
Conditions: DPBS, Table 2; read-out: Solubility
Numbered stars: 1 amine (or outer) side, 2 acyl side, 3 side chain; on linkers, the order of the positions; unused ones are H or OH. Bridge positions count the residues as written; N and C are the ends. Square brackets hold non-standard residues; d marks the D form. Peptide text beside a SMILES is read from it. * marks the point of attachment. 3Aminoazetidine3carboxyl = O=C(C1(N[*:1])CN([*:3])C1)[*:2]; dαMeDab(Me) = CN(CC[C@@](C)(N[*:1])C(=O)[*:2])[*:3]; X1 = O=C([C@]1(N[*:1])CCN([*:3])C1)[*:2]; X2 = O=C(OCC=CCOC(=O)[*:2])[*:1]; Lauroyl = CCCCCCCCCCCC(=O)*
property name: solubility (µM)
Report the value in µM with no unit label.

CCCCCCCCCCCC(=O)N[C@@H](C)C(=O)N[C@]1(C)CCN(C)C(=O)OCC=CCOC(=O)N2CC[C@@](C(=O)N[C@@H](CCCNC(=N)N)C(=O)N[C@H](C(=O)N[C@@H](Cc3c[nH]c4ccccc34)C(N)=O)C(C)C)(C2)NC(=O)[C@H]([C@@H](C)CC)NC(=O)[C@H](Cc2c[nH]cn2)NC(=O)[C@H](C)NC(=O)[C@H](CC(=O)O)NC(=O)[C@H](CC(C)C)NC(=O)[C@H]([C@@H](C)CC)NC1=O [FP0597c_c12, Dodec-A-MG-I-L-D-A-H-I-MB-R-V-W-NH2] (Lauroyl-A[dαMeDab(Me)]ILDAHI[X1]RVW-NH2; linker 2-9 via X2)
4
CC[C@H](C)[C@@H]1NC(=O)[C@H](Cc2c[nH]cn2)NC(=O)[C@H](C)NC(=O)[C@H](CC(=O)O)NC(=O)[C@H](CC(C)C)NC(=O)[C@H]([C@@H](C)CC)NC(=O)[C@](C)(NC(C)=O)CCCCCCC=CCOC(=O)N2CC[C@@](C(=O)N[C@@H](CCCNC(=N)N)C(=O)N[C@H](C(=O)N[C@@H](Cc3c[nH]c4ccccc34)C(N)=O)C(C)C)(C2)NC1=O [FP0220c, Ac-R8-I-L-D-A-H-I-MB-R-V-W-NH2]
14
CC[C@H](C)[C@@H]1NC(=O)[C@H](Cc2c[nH]cn2)NC(=O)[C@H](C)NC(=O)[C@H](CC(=O)O)NC(=O)[C@H](CC(C)C)NC(=O)[C@H]([C@@H](C)CC)NC(=O)[C@](C)(NC(=O)[C@H](C)NC(C)=O)CCCCCCC=CCOC(=O)N2CC[C@@](C(=O)N[C@@H](CCCNC(=N)N)C(=O)N[C@H](C(=O)N[C@@H](Cc3c[nH]c4ccccc34)C(N)=O)C(C)C)(C2)NC1=O (single isomer, unassigned) [FPO217c Isomer 2, Ac-AR8ILDAHIMBRVW (SEQ ID NO: 280)]
7

Short answer for CC[C@H](C)[C@@H]1NC(=O)[C@H](Cc2c[nH]cn2)NC(=O)[C@H](C)NC(=O)[C@H](CC(=O)O)NC(=O)[C@H](CC(C)C)NC(=O)[C@H]([C@@H](C)CC)NC(=O)C2(NC(=O)[C@H](C)NC(C)=O)CN(C2)C(=O)OCC=CCOC(=O)N2CC[C@@](C(=O)N[C@@H](CCCNC(=N)N)C(=O)N[C@H](C(=O)N[C@@H](Cc3c[nH]c4ccccc34)C(N)=O)C(C)C)(C2)NC1=O [FP0617c, Ac-A-MA-I-L-D-A-H-I-MB-R-V-W-NH2] (Ac-A[3Aminoazetidine3carboxyl]ILDAHI[X1]RVW-NH2; linker 2-9 via X2) : solubility was 63
